Measured values drawn from ChEMBL document CHEMBL4000194 for this set.

target: Glutamate receptor ionotropic, kainate 1 (Rattus norvegicus); experiment: Antagonist activity at recombinant rat full length GluK1 receptor expressed in HEK293T cells assessed as inhibition of glutamate induced increase in peak current at -100mV holding potential by patch-clamp method
PARAMETER MEASURED: pIC50
Field pIC50 (float): negative decimal logarithm of the concentration in molar.

Query :: # query: pIC50 | item `O=C(O)c1ccccc1O[C@H]1CN[C@H](C(=O)O)C1` | system: Glutamate receptor ionotropic, kainate 1 (Rattus norvegicus)
Result :: 5.24

###

experiment: Displacement of [3H]CGP39653 from NMDA receptor in rat brain synaptosomal membranes after 60 mins by TopCount microplate scintillation counting method; assay type: cell membranes
PARAMETER MEASURED: Ki

O=C(O)Cc1ccccc1O[C@H]1CN[C@H](C(=O)O)C1 : > 100 µM
O=C(O)c1ccc(O[C@H]2CN[C@H](C(=O)O)C2)c(C(=O)O)c1 : > 100 µM
O=C(O)c1cc2ccccc2cc1O[C@H]1CN[C@H](C(=O)O)C1 : > 100 µM
O=C(O)c1ccccc1O[C@@H]1CN[C@H](C(=O)O)C1 : > 100 µM
O=C(O)c1cccc(O[C@@H]2CN[C@H](C(=O)O)C2)c1 : > 100 µM
O=C(O)c1ccccc1S[C@@H]1CN[C@H](C(=O)O)C1 : > 100 µM
Cc1cccc(C(=O)O)c1O[C@H]1CN[C@H](C(=O)O)C1 : > 100 µM
Cc1ccc(O[C@H]2CN[C@H](C(=O)O)C2)c(C(=O)O)c1 : > 100 µM

Now turn to the next compound.
Query :: Give the measured Ki of `O=C(O)c1cccc(S[C@@H]2CN[C@H](C(=O)O)C2)c1` .
Result :: > 100 µM

###

Entries and their measured pIC50 follow.
molecular target: Excitatory amino acid transporter 1 (Homo sapiens, UniProt P43003); experiment: Inhibition of human EAAT1 expressed in HEK293 cells assessed as reduction in [3H]-D-Asp uptake after 15 mins by TopCount scintillation counting method
Sequence (P43003 whole entry): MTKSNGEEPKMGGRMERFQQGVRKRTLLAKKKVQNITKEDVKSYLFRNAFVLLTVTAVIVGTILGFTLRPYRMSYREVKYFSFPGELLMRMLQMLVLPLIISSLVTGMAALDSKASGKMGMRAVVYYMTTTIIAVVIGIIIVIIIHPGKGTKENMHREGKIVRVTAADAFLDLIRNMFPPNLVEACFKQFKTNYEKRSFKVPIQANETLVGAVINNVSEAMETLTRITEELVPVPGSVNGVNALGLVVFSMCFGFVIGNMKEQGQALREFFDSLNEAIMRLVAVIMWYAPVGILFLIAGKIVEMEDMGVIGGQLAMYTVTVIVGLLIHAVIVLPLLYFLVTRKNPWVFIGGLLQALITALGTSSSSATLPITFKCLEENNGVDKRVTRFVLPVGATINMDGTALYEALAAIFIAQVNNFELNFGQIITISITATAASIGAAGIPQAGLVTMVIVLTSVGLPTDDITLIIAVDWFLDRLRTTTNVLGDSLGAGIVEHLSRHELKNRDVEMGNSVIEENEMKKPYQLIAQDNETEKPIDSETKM
pIC50: −log10 of the molar value.

Cl.O=C(O)c1ccc(O[C@H]2CN[C@H](C(=O)O)C2)cc1 : < 3.00
O=C(O)c1ccccc1O[C@@H]1CN[C@H](C(=O)O)C1 : < 3.00
O=C(O)c1cccc(O[C@H]2CN[C@H](C(=O)O)C2)c1 : < 3.00

Now turn to the next compound.
Query :: Give the measured pIC50 of `O=C(O)c1ccccc1O[C@H]1CN[C@H](C(=O)O)C1` .
Result :: < 3.00

###

test: Displacement of [3H]CGP39653 from NMDA receptor in rat brain synaptosomal membranes after 60 mins by TopCount microplate scintillation counting method; type: cell membranes
PARAMETER MEASURED: pKi

Cl.O=C(O)c1cccc(C[C@H]2CN[C@H](C(=O)O)C2)c1 : 4.18
O=C(O)c1cccc(S[C@H]2CN[C@H](C(=O)O)C2)c1 : 4.11
O=C(O)c1ccccc1S[C@H]1CN[C@H](C(=O)O)C1 : 4.73
Cl.O=C(O)c1ccc(O[C@H]2CN[C@H](C(=O)O)C2)cc1 : 4.11

###

target: Glutamate receptor ionotropic, kainate 1 (Rattus norvegicus, UniProt P22756); experiment: Displacement of [3H]NF608 from eGFP-fused recombinant rat full length GluK1 receptor expressed in HEK293T/17 cells by liquid scintillation counting method; format: cell-based; conditions: read-out: Ki
Sequence (P22756 whole entry, the tested form may be a part): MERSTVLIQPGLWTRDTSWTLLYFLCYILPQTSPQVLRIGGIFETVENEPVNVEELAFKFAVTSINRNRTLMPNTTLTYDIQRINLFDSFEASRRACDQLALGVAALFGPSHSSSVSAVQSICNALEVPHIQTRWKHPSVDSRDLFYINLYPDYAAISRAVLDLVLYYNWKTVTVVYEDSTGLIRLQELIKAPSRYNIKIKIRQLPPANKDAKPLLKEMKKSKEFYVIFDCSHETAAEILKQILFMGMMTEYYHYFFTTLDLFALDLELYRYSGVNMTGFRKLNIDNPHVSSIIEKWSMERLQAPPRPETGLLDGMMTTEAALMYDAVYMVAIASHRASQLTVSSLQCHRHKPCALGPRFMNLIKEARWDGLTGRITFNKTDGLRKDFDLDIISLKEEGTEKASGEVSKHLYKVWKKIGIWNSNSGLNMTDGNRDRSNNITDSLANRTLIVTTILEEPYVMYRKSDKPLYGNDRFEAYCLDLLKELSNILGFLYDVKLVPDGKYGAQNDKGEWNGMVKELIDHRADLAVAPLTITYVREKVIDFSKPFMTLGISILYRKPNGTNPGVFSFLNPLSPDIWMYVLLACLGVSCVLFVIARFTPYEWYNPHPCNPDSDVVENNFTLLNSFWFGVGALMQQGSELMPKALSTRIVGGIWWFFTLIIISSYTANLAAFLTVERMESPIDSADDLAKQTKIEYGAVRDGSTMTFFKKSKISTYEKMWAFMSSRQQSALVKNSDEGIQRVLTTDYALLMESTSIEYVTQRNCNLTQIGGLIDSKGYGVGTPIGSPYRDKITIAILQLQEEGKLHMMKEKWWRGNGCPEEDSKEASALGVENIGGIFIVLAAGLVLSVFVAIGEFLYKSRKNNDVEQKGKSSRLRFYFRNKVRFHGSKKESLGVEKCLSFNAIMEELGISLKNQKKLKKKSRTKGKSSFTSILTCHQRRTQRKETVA
Entries and their measured Ki follow.

Solved entries:
O=C(O)c1ccccc1O[C@H]1CN[C@H](C(=O)O)C1 : 4 µM
O=C(O)c1cccc(S[C@H]2CN[C@H](C(=O)O)C2)c1 : > 100 µM

Now turn to the next molecule.
Query :: Give the measured Ki of `O=C(O)c1cccc(O[C@@H]2CN[C@H](C(=O)O)C2)c1` .
Result :: > 100 µM
